System: PPARa:RXRa (NR concentration 270 nM, RXRa partner concentration 90 nM)
protocol.summary: PBM binding z-score (relative to random genomic background probes); higher = stronger binding; sequences stand for … in GC…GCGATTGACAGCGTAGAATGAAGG
parameter.measured: PBM binding z-score
Give only the figure.

Solved cases below.
[
  {
    "primary.sequence": "CAAACTAGGTCACGTAAGGTCAAAGTCGAATGAC",
    "PBM binding z-score": 6.49
  },
  {
    "primary.sequence": "TTACCAAGGTGAAAGGTCGTAGATGCACGCCTTG",
    "PBM binding z-score": 5.51
  },
  {
    "primary.sequence": "CCGACTGGGGCAAAGCTTACCATACTCAGTACGA",
    "PBM binding z-score": 0.592
  }
]

Turning now to a further sequence:
Lab note: need PBM binding z-score with PPARa:RXRa (NR concentration 270 nM, RXRa partner concentration 90 nM) for entry CCTAGTTGGTCAACGTCACACACGCTATAGGTAC , please look it up.
0.58

----------
Here the recorded PBM binding z-score is given for each entry.
Test system: RARb:RXRa (NR concentration 270 nM, RXRa partner concentration 90 nM)
protocol.summary: PBM binding z-score (relative to random genomic background probes); higher = stronger binding; sequences stand for … in GC…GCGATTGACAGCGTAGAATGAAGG
Give only the figure.

Solved cases below.
[
  {
    "primary.sequence": "AGAATGAGGTTAAGCTCAGGGAAACAGAATACAT",
    "PBM binding z-score": 2.06
  },
  {
    "primary.sequence": "GATACAGGGTCAGCTGGAGGCCAGAGTATGGAAA",
    "PBM binding z-score": 4.3
  },
  {
    "primary.sequence": "CGTCCAAGGTCAAACGTCAGTGAAGAGATGACGG",
    "PBM binding z-score": 5.22
  },
  {
    "primary.sequence": "GCAGATAGGTAATACAAGGTGAAAGTCCGATTGT",
    "PBM binding z-score": 0.412
  },
  {
    "primary.sequence": "ACTTACGGGTCAACGAGTTTATAGCACGCGTATA",
    "PBM binding z-score": 4.14
  },
  {
    "primary.sequence": "GTACCAAGGTGAATCGGTCGTTGATGAGTAGGCG",
    "PBM binding z-score": 1.67
  }
]

Dear colleague, I am looking for the recorded PBM binding z-score of the following sequence: ACTCGGAGGACAAAGGTTAGAGCTACGCCAGTGA
2.23

----------
Tested on: PPARg:RXRa 90nM:30nM, anti-RXR (NR concentration 90 nM, RXRa partner concentration 30 nM)
protocol.summary: PBM binding z-score (relative to random genomic background probes); higher = stronger binding; sequences stand for … in GC…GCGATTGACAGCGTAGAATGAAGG
parameter.measured: PBM binding z-score
Give only the figure.

[
  {
    "primary.sequence": "CCTTACGGGTCACTCCAGGTAATAGCATCGGAGT",
    "PBM binding z-score": 2.94
  },
  {
    "primary.sequence": "TCTACTAGGTCAACGATGGTCAGCTAATCTGCTA",
    "PBM binding z-score": 5.88
  }
]

Dear colleague, I am looking for the recorded PBM binding z-score of the following sequence: TATAGTTGGTCACGGAGGTCACACACGACGGGTA
3.19

Dear colleague, I am looking for the recorded PBM binding z-score of the following sequence: CAGCCTAGGTCAGGTCCAGTATAGGAGGAACGTT
0.231

Dear colleague, I am looking for the recorded PBM binding z-score of the following sequence: GCAGACAGGTGAAACGCCGGTAACTCAGGGTGGC
-0.552

Dear colleague, I am looking for the recorded PBM binding z-score of the following sequence: AATACAGTGTCATCGTAGGCCAGAGTACGCACAG
0.495

Dear colleague, I am looking for the recorded PBM binding z-score of the following sequence: GCTTGTATATCAAGGTTAAGAAAGACTAAGCTAA
0.527

----------
Tested on: PPARg DBDmut:RXRa IVT, anti-PPARg (DBD mutation: PPARg1 K132A/R137A, NR concentration 270 nM, RXRa partner concentration 90 nM)
protocol.summary: PBM binding z-score (relative to random genomic background probes); higher = stronger binding; sequences stand for … in GC…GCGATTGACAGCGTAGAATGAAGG
parameter.measured: PBM binding z-score
Give only the figure.

[
  {
    "primary.sequence": "GCATATAGGTAATACAAGATGAAAGTCCGATTGT",
    "PBM binding z-score": 1.01
  },
  {
    "primary.sequence": "TCTGCTAGGTCACCGATGGTCAGCTAATCTGCTA",
    "PBM binding z-score": 0.945
  },
  {
    "primary.sequence": "GCTTGTAGATCAAGGTTATGAAAGACTAAGCTAA",
    "PBM binding z-score": 0.000562
  },
  {
    "primary.sequence": "TTACCAAGGTGAAGGTCTTTGATCCCTCTGTAGA",
    "PBM binding z-score": -0.214
  },
  {
    "primary.sequence": "TCTATTAGTTTAAGGGCAACCGACGAGTCCGTTT",
    "PBM binding z-score": 0.439
  },
  {
    "primary.sequence": "ATCGAAAGGTGGTGAGGTGAGTATACAGAAAGGC",
    "PBM binding z-score": 0.968
  },
  {
    "primary.sequence": "TCTATTAGTGGATTAGGGCAACCGAAACAGCGGA",
    "PBM binding z-score": 0.96
  },
  {
    "primary.sequence": "CCTAGCAGGCCAATCTGGATCACTCAAGGCTTGA",
    "PBM binding z-score": -1.11
  }
]

Dear colleague, I am looking for the recorded PBM binding z-score of the following sequence: CAAACTATGTCACAGAGGTCAAAGTCCGTGCGTA
0.905

Dear colleague, I am looking for the recorded PBM binding z-score of the following sequence: CGTCCAAGGCCAAGGTCAGTGAAAGAGACTCGAA
-1.04

Dear colleague, I am looking for the recorded PBM binding z-score of the following sequence: CCTAGTTGGTCAGGAGGTCACGCACCGGATATGA
0.246

Dear colleague, I am looking for the recorded PBM binding z-score of the following sequence: CGTCCAAGGTCATAGGAGGTCAGTGAAGACAGAT
0.77

Dear colleague, I am looking for the recorded PBM binding z-score of the following sequence: AGAATGAGGTTATACGTAGAACAGGGAAGAAAGT
1.52

Dear colleague, I am looking for the recorded PBM binding z-score of the following sequence: ATCTCTAGGTAAGACTCAGTTCACTGAAGAACGC
0.951

Dear colleague, I am looking for the recorded PBM binding z-score of the following sequence: GCATATAGGTAACACAAGGTGAAAGTCCGATTGT
0.827

Dear colleague, I am looking for the recorded PBM binding z-score of the following sequence: TCTTGTAGATCAAAAGTTAAGAAAGCCGAAGCCT
1.09

Dear colleague, I am looking for the recorded PBM binding z-score of the following sequence: GCGACTGGGGCAAAGCAGGTTAGCATAAGGTTGG
-0.633

Dear colleague, I am looking for the recorded PBM binding z-score of the following sequence: AGTCAAAGTTCATCTAGGTAACGTGAGATATGCT
1.73

Dear colleague, I am looking for the recorded PBM binding z-score of the following sequence: GCGACTGGGGCTTCAGCAGGTTACCATAACTTAA
-0.978

Dear colleague, I am looking for the recorded PBM binding z-score of the following sequence: CCTACTGGGCCAAACAGGTCATTGATGCCGATAA
0.0161

Dear colleague, I am looking for the recorded PBM binding z-score of the following sequence: CATACAGGGCCAGCTAGGCCAGAGTAGGGACGGC
-0.139

Dear colleague, I am looking for the recorded PBM binding z-score of the following sequence: ATACCAAGGTGATCGCGAGGTCGTTGATACTAAC
0.0109

Dear colleague, I am looking for the recorded PBM binding z-score of the following sequence: AGAACGAGGGCACGCTGGGTTGATAGCAGAGTAG
1.12

Dear colleague, I am looking for the recorded PBM binding z-score of the following sequence: CAAACTAGGTCAAAGTCAAAGTCGGTTTGTGCCA
4.97

Dear colleague, I am looking for the recorded PBM binding z-score of the following sequence: GAAACAGGGTCAGCTAGAGGCCAGAGTATGGAAA
0.33

Dear colleague, I am looking for the recorded PBM binding z-score of the following sequence: GCGACTGGGGCAAAGCAGGTTTCCATAAGGTTGG
-0.184

Dear colleague, I am looking for the recorded PBM binding z-score of the following sequence: CCAGACAGGTGAGATGGTAACTCAGCCTCGATTA
-0.391

Dear colleague, I am looking for the recorded PBM binding z-score of the following sequence: ATCTCTAGGTAAAGATAGTTCAGTTAATGCAAAT
0.842

Dear colleague, I am looking for the recorded PBM binding z-score of the following sequence: ACTAACAGGCCAAGTTTGGGTCACTCAAACAAAG
-0.122

Dear colleague, I am looking for the recorded PBM binding z-score of the following sequence: TAGCCTAGGTCATGCGGGCCAGAATAGTGTCGGC
-0.0114
